Experiment: cSCC tumour pharmacokinetics after intra-tumoural injection (LC/MS/MS)
Assay type: in vivo, mouse
Conditions: K14-HPV38-E6/E7, mouse, in vivo; 18 h post final dose, SCC tumours; read-out: Average Concentration Compound 1 in tumour
assay-endpoint: concentration at 18 h (ng/g)
Could you give me the number in ng/g? Just the number is fine.

Task item: Suppose we examine the compound CC[C@@H]1/C=C(\C)[C@@H](O)[C@H](C)C[C@H](OC)[C@H]2O[C@@](O)(C(=O)C(=O)N3CCCC[C@H]3C(=O)O[C@H](/C(C)=C/[C@@H]3CC[C@@H](O)[C@H](OC)C3)[C@H](C)[C@@H](O)CC1=O)[C@H](C)C[C@@H]2OC ; what concentration at 18 h value has been reported?
Reply: 168000
